Molecular target: chimpanzee GPR105 protein (Pan troglodytes)
Sequence (A0A2J8P2M1 1-338): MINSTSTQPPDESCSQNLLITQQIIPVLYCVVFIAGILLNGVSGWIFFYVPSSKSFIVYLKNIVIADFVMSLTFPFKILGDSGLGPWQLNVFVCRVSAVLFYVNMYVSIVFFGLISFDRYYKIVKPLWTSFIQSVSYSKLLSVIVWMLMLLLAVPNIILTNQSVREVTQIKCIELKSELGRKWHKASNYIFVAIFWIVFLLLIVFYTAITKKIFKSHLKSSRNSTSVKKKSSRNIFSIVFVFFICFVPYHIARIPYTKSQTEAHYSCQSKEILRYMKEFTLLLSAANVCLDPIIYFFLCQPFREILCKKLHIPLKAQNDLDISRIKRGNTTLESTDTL
Test: Cell-Binding Assay: inhibition of UDP-glucose-induced Ca2+ signaling (FLIPR) in HEK/GPR105/Gqi5 cells
Details: HEK cells expressing chimpanzee GPR105 and Gqi5, UDP-glucose agonist at EC80
Procedure: A stable HEK clonal cell line expressing the chimpanzee GPR105 protein and the chimeric G protein Gqi5 was developed. The chimeric Gqi5 forces the coupling of GPR105 through the Gq (calcium) pathway and allows for monitoring of calcium signaling using a calcium binding fluorescent dye and the FLIPR (fluorometric imaging plate reader, MDS Sciex). […] Quantitation of the % inhibition of Ca^2+ signaling by antagonist was calculated using the maximum fluorescent signal detected. […]
pIC50: −log10 of the molar value.
Below is a list of entries, each paired with its recorded pIC50 value.
property-label: pIC50

In [3]: df
Out[3]:
                            chemical_smiles  observed_result
0  Cc1ccccc1-c1nc(-c2cccnc2)nc2c1CN(C(=O)Nc1cccc(-c3ccc(C(N)=O)cc3)c1)CC2             7.74
1  CCc1cccc(NC(=O)N2CCc3nc(-c4ccnc(F)c4)nc(-c4ccccc4C)c3C2)c1             7.92
2  CCc1cncc(NC(=O)N2CCc3nc(-c4cccnc4)nc(-c4ccccc4C)c3C2)c1             7.25
3  CCc1cccc(NC(=O)N2CCc3nc(-c4ccc(C#N)nc4)nc(-c4ccccc4C)c3C2)c1             8.11
4  CCc1cc(Cl)cc(NC(=O)N2CCc3nc(-c4cncnc4)nc(-c4ccccc4C)c3C2)c1             7.98
5  CCc1cccc(NC(=O)N2CCc3nc(-c4ccnn4C)nc(-c4ccccc4C)c3C2)c1             7.46
